B1: library; numbered along this chain (parent)
chain: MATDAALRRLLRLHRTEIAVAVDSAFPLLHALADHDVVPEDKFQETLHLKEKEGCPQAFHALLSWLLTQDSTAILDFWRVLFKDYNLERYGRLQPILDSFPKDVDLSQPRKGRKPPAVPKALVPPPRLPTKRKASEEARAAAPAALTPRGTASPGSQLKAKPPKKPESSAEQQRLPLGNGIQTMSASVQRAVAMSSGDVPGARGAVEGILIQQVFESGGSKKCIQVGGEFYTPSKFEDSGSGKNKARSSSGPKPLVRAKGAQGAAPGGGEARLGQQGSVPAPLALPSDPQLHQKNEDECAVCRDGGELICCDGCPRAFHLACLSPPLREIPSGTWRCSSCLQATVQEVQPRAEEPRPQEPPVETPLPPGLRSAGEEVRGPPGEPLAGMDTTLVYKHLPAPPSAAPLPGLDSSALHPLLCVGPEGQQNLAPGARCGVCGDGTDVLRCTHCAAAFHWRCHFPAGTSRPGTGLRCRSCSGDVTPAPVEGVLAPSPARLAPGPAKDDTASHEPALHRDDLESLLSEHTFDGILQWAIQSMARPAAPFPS

- Variants of: B1
- METHOD DESCRIPTION: AIRE transcriptional activation functional score (insulin promoter-GFP; nonsense median 0, synonymous median 1) (normalised score); higher = higher AIRE activity (more reporter activation)
- EXPERIMENTAL SETUP: with insulin promoter-GFP reporter in HEK293
VALUE TYPE: AIRE transcriptional activation functional score
Lab note: jot down the number only; don't add units.

Previously resolved entries follow.
| VARIANT DESCRIPTION | TEST VALUE |
| --- | --- |
| P280V | 1.2 |
| R257W | 0.743 |

Now, please, on to the next variant.
Return AIRE transcriptional activation functional score (reported value) for this variant: T504F
0.918

meta.source: the supplement of paper PMC12667976
